B1: library; numbered along this chain (parent)
chain: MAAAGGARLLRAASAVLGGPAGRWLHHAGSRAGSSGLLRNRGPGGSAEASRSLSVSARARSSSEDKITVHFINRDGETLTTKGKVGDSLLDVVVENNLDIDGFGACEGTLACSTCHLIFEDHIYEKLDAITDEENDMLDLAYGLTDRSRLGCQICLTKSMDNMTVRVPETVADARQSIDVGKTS

- Variants of: B1
- EXPERIMENT: scaled log2 fold change in cell abundance, elesclomol vs control (0 = silent mean, 1 = nonsense mean) (scaled log2 ratio); higher = higher viability under elesclomol (loss of FDX1 cuproptosis function);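 further: variant abundance is its share of total variant reads in each endpoint sample, from next-generation sequencing of the integrated ORF PCR-amplified out of genomic DNA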
- COND: with HEK293T FDX1 KO; elesclomol 40 nM; glucose 10 mM; 11 days
REPORTED_PROPERTY: scaled log2 fold change

- MUTATION_STRING: "G36V"
  REPORTED_PROPERTY: "scaled log2 fold change"
  VALUE_MEASURED: -0.262
- MUTATION_STRING: "K82P"
  REPORTED_PROPERTY: "scaled log2 fold change"
  VALUE_MEASURED: -0.31
- MUTATION_STRING: "I67T"
  REPORTED_PROPERTY: "scaled log2 fold change"
  VALUE_MEASURED: 0.365
- MUTATION_STRING: "L38N"
  REPORTED_PROPERTY: "scaled log2 fold change"
  VALUE_MEASURED: 0.121
- MUTATION_STRING: "L156F"
  REPORTED_PROPERTY: "scaled log2 fold change"
  VALUE_MEASURED: -0.036
- MUTATION_STRING: "L89S"
  REPORTED_PROPERTY: "scaled log2 fold change"
  VALUE_MEASURED: 0.924
- MUTATION_STRING: "S63T"
  REPORTED_PROPERTY: "scaled log2 fold change"
  VALUE_MEASURED: -0.0954
- MUTATION_STRING: "A111E"
  REPORTED_PROPERTY: "scaled log2 fold change"
  VALUE_MEASURED: 1.05
- MUTATION_STRING: "E125Y"
  REPORTED_PROPERTY: "scaled log2 fold change"
  VALUE_MEASURED: -0.0436
- MUTATION_STRING: "E95M"
  REPORTED_PROPERTY: "scaled log2 fold change"
  VALUE_MEASURED: -0.356
- MUTATION_STRING: "I100F"
  REPORTED_PROPERTY: "scaled log2 fold change"
  VALUE_MEASURED: -0.586
